- System: UO-31
- assay_method_text: NCI tumour cell line growth inhibition, 48 h
The source made the active and inactive calls. Rule as the data show it: active = GI50 up to about 1.1 µM and inactive = higher.
Assign a class; possible classes are active, inactive

Name the outcome recorded for O=C(O)C1C2C=CC(O2)C1C(=O)NCc1ccncc1 (stereo unspecified) in the assay. inactive

What would you report for CCOC(=O)C1(O)C(=O)C2=C3C(=O)OC(C4OC(=O)c5c(c(O)c(O)c(O)c5C31)-c1c(cc(O)c(O)c1O)C(=O)OC1COC(=O)c3cc(O)c(O)c(O)c3-c3c(cc(O)c(O)c3O)C(=O)OC14)[C@@H]2O (stereo partly specified) ? inactive

Lookup "Cc1ccc(/C=C2\CCCCCC2=O)cc1" inactive

# iterate: CC1=C(C(=O)CC(=O)C(=O)NC2C3CC4CC(C3)CC2C4)Sc2ccccc2N1 (stereo unspecified) inactive

Would you mind doing "CCCN1C(=O)C/C(=C\C(C)=O)Nc2ccccc21" as well? inactive

Consider next the compound "CCCCCCCCCc1nn2c(Cc3ccccc3)nnc2s1" in the same way. inactive

Repeat with "COc1ccc(-c2nc3ccc([N+](=O)[O-])cc3c(=O)[nH]2)cc1" inactive

Moving on to the next compound: "Cn1cnc2c(sc3nc4ccccc4n32)c1=N" inactive

Then what about the compound "S=c1cc(S)c2c(=S)sc3nc4ccccn4c(=S)c3c2s1" ? inactive

Now the same for "S=C(N/N=C(\c1ccccc1)c1ccccn1)NC1CCCCC1" inactive

What about this compound? "Cn1c(=O)nc2n(-c3ccc(Cl)cc3)c(-c3ccccc3)c(-c3ccccc3)nc-2c1=O" inactive

Request: "c1ccc(CCc2cccnc2)nc1" inactive

Also check "O=c1[nH]c2ccc(C(F)(F)F)cc2nc1Cc1ccccc1" inactive

Please give the result for "C/C=C(\CCOS(=O)(=O)c1ccc(C)cc1)[Si](C)(C)C" too. inactive

# iterate: "N/N=c1\c2ccccc2c2cc3c(cc12)/c(=N/N)c1ccccc13" inactive

// repeat for "N=C(N)NCC[C@H](NC(=O)OCCCCCn1ccc(=O)[nH]c1=O)C(=O)O" and report inactive

Please do the same for CC(N/N=C(\S)N1CCN(c2ccccn2)CC1)c1nccc2ccccc12 (stereo unspecified) as well. active

Moving on to the next compound: "CC(=O)O[C@H]1C(=O)[C@@]2(C)[C@H]([C@H](OC(=O)c3ccc(F)cc3)[C@]3(O)C[C@H](OC(=O)[C@H](O)[C@@H](NC(=O)c4ccccc4)c4ccccc4)C(C)=C1C3(C)C)[C@]1(OC(C)=O)CO[C@@H]1C[C@@H]2O" inactive

Follow-up item: "O=S1(=O)OCCCOS(=O)(=O)C1(Br)Br" inactive

Next: "C=C(C(=O)OC)[C@H]1CC/C(C)=C/CC/C(C)=C/CC[C@@]2(C)O[C@@H]2C1" inactive

Entry to check: "CN(C)CCCNc1ccnc2c([N+](=O)[O-])cccc12" inactive
